- ASSAY METHOD TEXT: in vitro
- CONDITION SUMMARY: isolated enzyme pronase
Numbered stars: 1 amine (or outer) side, 2 acyl side, 3 side chain; on linkers, the order of the positions; unused ones are H or OH. Bridge positions count the residues as written; N and C are the ends. Peptide text beside a SMILES is read from it. X1 = O=C(C=NOCCCCCCOc1cc(C[*:2])cc(C[*:3])c1)[*:1]; X2 = O=C(C=NOCc1cc(C[*:2])cc(C[*:3])c1)[*:1]
MEASURED PARAMETER: remaining at 5 h (%)
Output spec: scalar in %, unitless text.

Q: Returns the measured remaining at 5 h for the input molecule. Input: CC(C)C[C@@H]1NC(=O)[C@H](Cc2ccc(O)cc2)NC(=O)[C@@H]2CSCc3cc(cc(c3)OCCCCCCON=CC(=O)N[C@@H](Cc3c[nH]c4ccccc34)C(=O)N[C@@H](CC(=O)O)C(=O)N[C@@H](Cc3ccc(O)cc3)C(=O)N[C@@H](CCCNC(=N)N)C(=O)N[C@@H](CCC(=O)O)C(=O)N2)CSC[C@@H](C(=O)O)NC(=O)[C@H](CCC(=O)O)NC1=O (WDYRECYLEC-OH; linker N-6-10 via X1; C-terminus assumed)
A: 68

Q: Returns the measured remaining at 5 h for the input molecule. Input: CC(C)C[C@@H]1NC(=O)[C@H](Cc2ccc(O)cc2)NC(=O)[C@@H](NC(=O)[C@H](CCC(=O)O)NC(=O)[C@H](CCCNC(=N)N)NC(=O)[C@H](Cc2ccc(O)cc2)NC(=O)[C@H](CC(=O)O)NC(=O)[C@H](Cc2c[nH]c3ccccc23)NC(=O)[C@@H](N)CO)CSSC[C@@H](C(=O)O)NC(=O)[C@H](CCC(=O)O)NC1=O [reference compound] (H-SWDYRECYLEC-OH; disulfide 7-11; N-terminus and C-terminus assumed)
A: 0.9

Q: Returns the measured remaining at 5 h for the input molecule. Input: CC(C)C[C@@H]1NC(=O)[C@H](Cc2ccc(O)cc2)NC(=O)[C@@H]2CSCc3cc(cc(c3)CSC[C@@H](C(=O)O)NC(=O)[C@H](CCC(=O)O)NC1=O)CON=CC(=O)N[C@@H](Cc1c[nH]c3ccccc13)C(=O)N[C@@H](CC(=O)O)C(=O)N[C@@H](Cc1ccc(O)cc1)C(=O)N[C@@H](CCCNC(=N)N)C(=O)N[C@@H](CCC(=O)O)C(=O)N2 (WDYRECYLEC-OH; linker N-6-10 via X2; C-terminus assumed)
A: 82

***
Q: Returns the measured remaining at 5 h for the input molecule. Input: CC(C)C[C@H](NC(=O)[C@H](Cc1ccc(O)cc1)NC(=O)[C@H](CS)NC(=O)[C@H](CCC(=O)O)NC(=O)[C@H](CCCNC(=N)N)NC(=O)[C@H](Cc1ccc(O)cc1)NC(=O)[C@H](CC(=O)O)NC(=O)[C@H](Cc1c[nH]c2ccccc12)NC(=O)[C@@H](N)CO)C(=O)N[C@@H](CCC(=O)O)C(=O)N[C@@H](CS)C(=O)O [reference compound] (H-SWDYRECYLEC-OH; N-terminus and C-terminus assumed)
A: 0.4

----------
- ASSAY METHOD TEXT: in vitro
- CONDITION SUMMARY: Streptomyces griseus
Numbered stars: 1 amine (or outer) side, 2 acyl side, 3 side chain; on linkers, the order of the positions; unused ones are H or OH. Bridge positions count the residues as written; N and C are the ends. Peptide text beside a SMILES is read from it. X2 = O=C(C=NOCc1cc(C[*:2])cc(C[*:3])c1)[*:1]
MEASURED PARAMETER: half-life

Q: Returns the measured half-life for the input compound. Input: CC(C)C[C@@H]1NC(=O)[C@H](Cc2ccc(O)cc2)NC(=O)[C@@H]2CSCc3cc(cc(c3)CSC[C@@H](C(=O)O)NC(=O)[C@H](CCC(=O)O)NC1=O)CON=CC(=O)N[C@@H](Cc1c[nH]c3ccccc13)C(=O)N[C@@H](CC(=O)O)C(=O)N[C@@H](Cc1ccc(O)cc1)C(=O)N[C@@H](CCCNC(=N)N)C(=O)N[C@@H](CCC(=O)O)C(=O)N2 (WDYRECYLEC-OH; linker N-6-10 via X2; C-terminus assumed)
A: ~24 h
